Reference for the values: patent US20180237441A1

# TARGET_ENTITY: PERK (Homo sapiens)
# Sequence (Q9NZJ5 30-1116): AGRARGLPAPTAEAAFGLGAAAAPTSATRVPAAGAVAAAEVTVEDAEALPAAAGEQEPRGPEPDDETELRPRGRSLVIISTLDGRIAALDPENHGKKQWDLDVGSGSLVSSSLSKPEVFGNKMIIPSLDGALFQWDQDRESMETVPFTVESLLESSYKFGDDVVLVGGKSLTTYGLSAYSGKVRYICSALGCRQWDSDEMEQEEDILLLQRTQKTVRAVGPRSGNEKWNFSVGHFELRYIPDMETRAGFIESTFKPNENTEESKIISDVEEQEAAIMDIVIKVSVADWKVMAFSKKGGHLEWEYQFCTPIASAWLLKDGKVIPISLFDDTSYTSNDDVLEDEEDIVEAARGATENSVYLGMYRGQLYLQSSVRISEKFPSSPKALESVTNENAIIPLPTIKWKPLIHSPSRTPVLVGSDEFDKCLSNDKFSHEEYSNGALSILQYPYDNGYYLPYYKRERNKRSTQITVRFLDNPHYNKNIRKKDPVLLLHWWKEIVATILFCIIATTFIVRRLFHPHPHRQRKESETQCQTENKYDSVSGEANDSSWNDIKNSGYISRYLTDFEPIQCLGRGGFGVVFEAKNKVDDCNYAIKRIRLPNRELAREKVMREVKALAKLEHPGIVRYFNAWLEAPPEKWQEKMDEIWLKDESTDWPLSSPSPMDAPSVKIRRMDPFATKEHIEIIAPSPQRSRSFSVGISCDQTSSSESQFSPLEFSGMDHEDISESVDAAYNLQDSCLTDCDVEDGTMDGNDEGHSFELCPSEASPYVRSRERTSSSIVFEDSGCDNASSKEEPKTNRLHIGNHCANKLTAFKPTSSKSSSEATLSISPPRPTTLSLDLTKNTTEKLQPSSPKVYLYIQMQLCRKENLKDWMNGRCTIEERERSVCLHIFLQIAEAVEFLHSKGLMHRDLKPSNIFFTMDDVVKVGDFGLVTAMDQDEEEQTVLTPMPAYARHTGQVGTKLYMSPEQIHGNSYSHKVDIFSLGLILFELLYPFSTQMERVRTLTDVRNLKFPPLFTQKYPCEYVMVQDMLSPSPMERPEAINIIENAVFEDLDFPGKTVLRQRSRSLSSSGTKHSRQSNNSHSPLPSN
# ASSAY_EXPLANATION: PERK enzyme assay (HTRF)
# Format: biochemical
# ASSAY_CONTEXT: PERK Enzyme (500 μM ATP) IC50; at least one experimental run; read-out: PERK Activity
# Method: Compounds of the invention were assayed for PERK enzyme inhibitory activity with modifications to previously reported conditions (Axten et al. J. Med. Chem., 2012, 55, 7193-7207). […] After 2 hrs, a fluorescence plate reader was used to measure inhibition and IC50s were calculated. […] The activity of compounds in the PERK enzyme assay was determined at PERK Enzyme (500 μM ATP) IC50 (nM).
pIC50: −log10 of the molar value.
MEASURED_PROPERTY: pIC50

Study these solved cases before continuing.
CN1C(=O)N(c2ccc(-c3cn(C4CC4)c4ncnc(N)c34)c(F)c2)CC1c1cc(F)c(F)cc1F (single isomer, unassigned) [Example 161] = > 7.00
CN1C(=O)N(c2ccc(-c3cn(C)c4ncnc(N)c34)c(F)c2)CC1c1cc(C2CC2)ccc1F (stereo not shown) = 6.00 to 7.00
Cc1cc(C)cc(C2CC(=O)N(c3ccc(-c4cn(C)c5ncnc(N)c45)c(F)c3)C2)c1 (stereo not shown) = > 7.00

q: Which pIC50 reading was recorded for the molecule Cn1cc(-c2ccc(N3CC(c4cc(F)ccc4F)CC3=O)cc2F)c2c(N)ncnc21 (stereo not shown) ?
a: 6.00 to 7.00

q: Here is the next molecule: CN1C(=O)N(c2ccc(-c3cn(C4CC4)c4ncnc(N)c34)c(F)c2)CC1c1cc(F)ccc1F (single isomer, unassigned) [Example 145]
a: > 7.00

q: Here is the next molecule: CN1C(=O)N(c2ccc(-c3cn(C)c4ncnc(N)c34)c(F)c2)CC1c1cccc(F)c1F (stereo not shown) [Example 74]
a: 6.00 to 7.00

q: Here is the next molecule: CN1C(=O)N(c2ccc(-c3cn(C4CC4)c4ncnc(N)c34)c(F)c2)CC1c1ccc(Cl)cc1 (single isomer, unassigned) [Example 168]
a: > 7.00

---

Overview of reported IC50 across a group of compounds:
# TARGET_ENTITY: UniProt:Q9NZJ5
# ASSAY_EXPLANATION: PERK enzyme assay (HTRF)
# Format: biochemical
# ASSAY_CONTEXT: PERK Enzyme (500 μM ATP) IC50; at least one experimental run; read-out: PERK Activity

COc1ccc(C2CN(c3ccc(-c4cn(C)c5nc(C)nc(N)c45)c(F)c3)C(=O)N2C)cc1 (centres unmarked) = 100 to 1000 nM

q: Which IC50 reading was recorded for the compound Cc1nc(C2CN(c3ccc(-c4cn(C)c5ncnc(N)c45)c(F)c3)C(=O)N2C)ccc1F (centres unmarked) [Example 112] ?
a: 100 to 1000 nM

q: Here is the next compound: Cc1nc(N)c2c(-c3ccc(N4CC(c5ccc(F)cc5F)N(C)C4=O)cc3F)nn(C)c2n1 (single isomer, unassigned) [Example 12]
a: < 100 nM

q: Here is the next compound: CN1C(=O)N(c2ccc(-c3cn(C4CC4)c4ncnc(N)c34)c(F)c2)CC1c1cc(F)cc(F)c1 (centres unmarked) [Example 176]
a: < 100 nM

q: Here is the next compound: CN1C(=O)N(c2ccc(-c3cn(C)c4ncnc(N)c34)c(F)c2)CC1c1cc(F)ccc1F (single isomer, unassigned) [Example 151]
a: 100 to 1000 nM

q: Here is the next compound: CN1C(=O)N(c2ccc(-c3cn(C)c4ncnc(N)c34)c(F)c2)CC1c1cccc(Cl)c1F (centres unmarked)
a: 100 to 1000 nM

q: Here is the next compound: CN1C(=O)N(c2ccc(-c3cn(C)c4ncnc(N)c34)c(F)c2)CC1c1ccc(F)cc1F (single isomer, unassigned) [Example 47]
a: > 1000 nM

q: Here is the next compound: Cc1nc(N)c2c(-c3ccc(N4CC(c5ccc(F)cc5F)N(C)C4=O)cc3F)cn(C(C)C)c2n1 (single isomer, unassigned)
a: 100 to 1000 nM

q: Here is the next compound: Cc1nc(N)c2c(-c3ccc(N4CC(c5ccc(F)cc5)N(C)C4=O)cc3F)cn(C)c2n1 (single isomer, unassigned) [Example 70]
a: < 100 nM

q: Here is the next compound: Cc1nc(N)c2c(-c3ccc(N4CC(c5ccc(F)cc5F)N(C)C4=O)cc3F)cn(C3CC3)c2n1 (single isomer, unassigned) [Example 8]
a: < 100 nM

q: Here is the next compound: CN1C(=O)N(c2ccc(-c3cn(C)c4ncnc(N)c34)c(F)c2)CC1c1ccc2c(c1)CCO2 (centres unmarked) [Example 147]
a: < 100 nM

q: Here is the next compound: CN1C(=O)N(c2ccc(-c3cn(C)c4ncnc(N)c34)c(F)c2)CC1c1cc(F)cc(F)c1 (single isomer, unassigned) [Example 100]
a: < 100 nM

q: Here is the next compound: CCN1C(=O)N(c2ccc(-c3cn(C4CC4)c4ncnc(N)c34)c(F)c2)CC1c1ccc(F)cc1F (centres unmarked)
a: < 100 nM

q: Here is the next compound: CN1C(=O)N(c2ccc(-c3cn(C)c4ncnc(N)c34)c(F)c2)CC1c1ccc2c(c1)CCO2 (single isomer, unassigned) [Example 169]
a: < 100 nM
